Values from patent US20030207813A1

Tested on: HIV-1RF
MEASUREMENT_PROTOCOL: CEM-T4 cell infection assay, reverse transcriptase readout, isolate RF
Type: cell-based
CONDITION_INFO: Human immunodeficiency virus 1, CEM-T4, 168 h, Table 4, CEM-T4 cells, 7 days, read-out: Virus Isolate (EC50 ng/mL) RF
I'd appreciate it if you could supply EC50 values for the items below.
State the value with its unit after it.

Task item: Report EC50 for CNCC(=O)N[C@H](C(=O)N[C@@H](Cc1ccccc1)[C@H](O)CN(CCC(C)C)C(=O)NC(C)(C)C)C(C)(C)C [Example 2] please.
Reply: 40 ng/mL

Task item: Report EC50 for COc1ccc(S(=O)(=O)N(CC(C)C)C[C@@H](O)[C@H](Cc2ccccc2)NC(=O)OCc2cncnc2)cc1 [Example 3] please.
Reply: 5 ng/mL

Task item: Report EC50 for CC(C)(C)NC(=O)[C@@H]1CN(Cc2cccnc2)CCN1C[C@@H](O)C[C@@H](Cc1ccccc1)C(=O)N[C@H]1c2ccccc2C[C@H]1O [Example 5] please.
Reply: 44 ng/mL

----------
I'd appreciate it if you could supply EC50 values for the items below.
Test system: NL4(P37-538)
MEASUREMENT_PROTOCOL: Viral isolate resistance assay per Markowitz et al., NL4(P37-538)
Format: cell-based, HIV-1
CONDITION_INFO: Human immunodeficiency virus 1, read-out: Virus Isolate (EC50 nM) NL4(P37-538)
Kindly provide the numeric value in nM only, without the unit symbol.

Task item: Report EC50 for CC(C)CN(C[C@@H](O)[C@H](Cc1ccccc1)NC(=O)[C@H](C)CS(C)(=O)=O)S(=O)(=O)c1ccc2c(c1)OCO2 [Example 15] please.
Reply: 1000

Task item: Report EC50 for CC(C)CN(C[C@@H](O)[C@H](Cc1ccccc1)NC(=O)[C@@H](NC(=O)CN1CCCC1)C(C)(C)C)S(=O)(=O)c1ccc2c(c1)OCO2 [Example 14] please.
Reply: 1000

----------
I'd appreciate it if you could supply log10 of EC90 values for the items below.
Tested on: NL4(I84V)
MEASUREMENT_PROTOCOL: Viral isolate resistance assay per Markowitz et al., NL4(I84V)
Type: cell-based, HIV-1
CONDITION_INFO: Human immunodeficiency virus 1, Table 7
The common logarithm of EC90 in nM is what is listed.

Task item: Report log10 of EC90 for `Nc1cccc(CN2C(=O)N(Cc3cccc(N)c3)[C@H](Cc3ccccc3)[C@H](O)[C@@H](O)[C@H]2Cc2ccccc2)c1` please.
Reply: 3.80

Task item: Report log10 of EC90 for `CC(C)(C)NC(=O)[C@@H]1CN(Cc2cccnc2)CCN1C[C@@H](O)C[C@@H](Cc1ccccc1)C(=O)N[C@H]1c2ccccc2C[C@H]1O` please.
Reply: 2.81

Task item: Report log10 of EC90 for `CC(C)c1nc(CN(C)C(=O)N[C@H](C(=O)N[C@@H](Cc2ccccc2)C[C@H](O)[C@H](Cc2ccccc2)NC(=O)OCc2cncs2)C(C)C)cs1` please.
Reply: 2.90

Task item: Report log10 of EC90 for `CC(C)CN(C[C@@H](O)[C@H](Cc1ccccc1)NC(=O)[C@@H](NC(=O)CN1CCCC1)C(C)(C)C)S(=O)(=O)c1ccc2c(c1)OCO2` please.
Reply: 1.86

Task item: Report log10 of EC90 for CC(C)(C)NC(=O)[C@@H]1CC2CCCC[C@@H]2CN1C[C@@H](O)[C@H](Cc1ccccc1)NC(=O)[C@H](CC(N)=O)NC(=O)c1ccc2ccccc2n1 (stereo in doubt) please.
Reply: 1.95
